- Test system: L1210 leukemia ip in BDF1 mice, survival T/C
- Measurement protocol: NCI In Vivo Anticancer Drug Screen. Data for tumor model L1210 Leukemia (intraperitoneal) in B6D2F1 (BDF1) mice
- Protocol conditions: endpoint: mean survival time; dose: 200.0 mg/kg/injection; schedule: Q01DX001 (ip); vehicle: saline with Tween-80; higher = longer survival
Toxic doses and inconclusive results are not listed.
Test readout: T/C

Example compounds with recorded T/C:
COc1ccc(CCN(C)C2c3ccccc3C=Cc3ccccc32)cc1OC | 107 % of control
O=C(O)C12CCC(CO)(CC1)CC2 | 92 % of control
CN(CCC(=O)c1ccccc1)CCC(=O)c1ccccc1 | 94 % of control
CSc1ccc(NC(=O)Oc2cc3ccccc3cc2C(=O)Nc2ccccc2)cc1 | 87 % of control

stdin: Which value of T/C has been reported for "O=C(O)c1ccc(CCc2cccnc2)cc1" in the records?
stdout: 98 % of control
